Test system: Lefty1
Method Description: Lefty1 protein binding to printed compounds – biochemical, small-molecule microarray, 635/667 nm fluorescence, primary screen (AID 1139)
Experimental Parameters: fluorescence 635/667, higher = more signal
Please use Met whenever composite z-score is not below 0.4, and Not met whenever it is.

# count of solved cases: 5
Compound: COC(=O)C(CC#Cc1ccc2c(c1)[C@]1(C(=O)N2)[C@H](c2ccc(O)cc2)N2[C@H](c3ccccc3)[C@H](c3ccccc3)OC(=O)[C@H]2[C@@H]1C(N)=O)C(=O)OC
Class Name: Not met
//
Compound: O=C1O[C@H](c2ccccc2)[C@H](c2ccccc2)N2[C@H]1[C@@H](C(=O)N1CCN(c3ncccn3)CC1)[C@]1(C(=O)Nc3ccc(C#CCCO)cc31)[C@H]2c1ccccc1OCCO
Class Name: Not met
//
Compound: C=C(CCCC)/C(=C/C[C@@H](OC(=O)c1ccncc1)c1ccccc1OCCO)c1cc(C(=O)OC)ccc1OC
Class Name: Met
//
Compound: COCCCNC(=O)[C@]1(Cc2ccccc2CN=[N+]=[N-])N=C(c2ccc(OCCCO)cc2)O[C@@H]1c1ccccc1CN=[N+]=[N-]
Class Name: Not met
//
Compound: O=C1N(CCS(=O)(=O)c2ccccc2)c2ccccc2[C@H]2OC(c3ccc(OCCCO)cc3)=N[C@@]12CCS(=O)(=O)c1ccccc1
Class Name: Met

Given the entry `O=[N+]([O-])c1ccc(C[n+]2ccc(-c3ccc(CO)cc3)cc2)o1` , answer whether its composite z-score meets or surpasses 0.4.
Not met

Given the entry Cc1ccc(C(C)CC(O)C2C=CC3C(=O)N(Cc4ccccc4)C(=O)C3N2n2cnnc2)o1 (centres undefined) , answer whether its composite z-score meets or surpasses 0.4.
Not met

Given the entry `CCC[C@@H]1C[C@@]1(CCC)[C@@H](NC(=O)c1cccs1)c1ccc(Cl)cc1` , answer whether its composite z-score meets or surpasses 0.4.
Not met

Given the entry `Cc1ccc(N2C(=O)c3ccccc3[C@](C)(C(=O)NC(C)C)[C@@H]2c2ccc(CO)cc2)nc1` , answer whether its composite z-score meets or surpasses 0.4.
Not met

Given the entry `[N-]=[N+]=NCc1ccccc1C[C@@]1(C(=O)NCCN2CCOCC2)N=C(c2ccc(OCCCO)cc2)O[C@@H]1c1ccccc1CN=[N+]=[N-]` , answer whether its composite z-score meets or surpasses 0.4.
Met

Given the entry `COCCOC(=O)N1C(=O)[C@@]2(c3cc(C#Cc4ccc(OC)cc4)ccc31)[C@H](c1ccc(OCCO)cc1)N1[C@H](c3ccccc3)[C@H](c3ccccc3)OC(=O)[C@H]1[C@@H]2C(N)=O` , answer whether its composite z-score meets or surpasses 0.4.
Met

* * *

Method Description: probe aShh binding to arrayed compounds – biochemical, biotinylated probe, 635/667 nm fluorescence, primary screen (AID 1114);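 note: probe is biotin-labelled aShh protein from a stem cell growth factor screen; measures binding of labelled protein to compounds printed on the slide; score merges feature fluorescence at 667 nm with signal-to-noise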
Experimental Parameters: small-molecule microarray, higher = more signal
Field: composite z-score. Provide a value for each of the compounds that follow.
Answers are plain numbers.

Use these answered entries as a reference point.
Compound: COCCOC(=O)N1C(=O)[C@@]2(c3cc(C#CCC(C(=O)OC)C(=O)OC)ccc31)[C@H](C(=O)N1CCCCCCC1)[C@H]1C(=O)O[C@H](c3ccccc3)[C@H](c3ccccc3)N1[C@@H]2c1ccc(O)cc1
composite z-score: -0.0422
--
Compound: C=CCOC(=O)[C@@H]1[C@H]2C(=O)O[C@H](c3ccccc3)[C@H](c3ccccc3)N2[C@H](c2ccc(OCCOC(=O)[C@@H]3C[C@@H]4C(=O)N[C@@H](CCCCNC(C)=O)C(=O)N4[C@@H]3c3ccc(O)cc3)cc2)[C@@]12C(=O)Nc1ccc(I)cc12
composite z-score: 0.0098
--
Compound: CC(C)C[C@@H]1NC(=O)[C@@H]2C[C@H](C(=O)NCc3ccc(F)cc3)[C@H](c3ccc(O)cc3)N2C1=O
composite z-score: 0.191
--
Compound: COc1ccccc1CN1C(=O)c2ccccc2[C@@H](C(=O)NCC(C)C)[C@@H]1c1ccc(CO)cc1
composite z-score: -0.776
--
Compound: CC(C)C[C@@H]1NC(=O)[C@@]23C(=O)N[C@@H](Cc4ccccc4)C2[C@H](C)[C@@]2(C)O[C@H]2C3/C=C/C/C=C\CNC(=O)[C@@H]2CCCN2C1=O (stereo partly specified)
composite z-score: -0.138

Moving on to the next compound.
I would be grateful if you could share the reported composite z-score for `CCOC(=O)C1=CC[C@@H](c2ccccc2)N(S(=O)(=O)c2ccc(C)cc2)[C@H]1C=C(C)C` .
0.199

Reference for the values: PubChem BioAssay
